- Experimental system: His-Tagged hOGA (human O-GlcNAcase) (Homo sapiens, UniProt O60502)
- Sequence (O60502 whole entry): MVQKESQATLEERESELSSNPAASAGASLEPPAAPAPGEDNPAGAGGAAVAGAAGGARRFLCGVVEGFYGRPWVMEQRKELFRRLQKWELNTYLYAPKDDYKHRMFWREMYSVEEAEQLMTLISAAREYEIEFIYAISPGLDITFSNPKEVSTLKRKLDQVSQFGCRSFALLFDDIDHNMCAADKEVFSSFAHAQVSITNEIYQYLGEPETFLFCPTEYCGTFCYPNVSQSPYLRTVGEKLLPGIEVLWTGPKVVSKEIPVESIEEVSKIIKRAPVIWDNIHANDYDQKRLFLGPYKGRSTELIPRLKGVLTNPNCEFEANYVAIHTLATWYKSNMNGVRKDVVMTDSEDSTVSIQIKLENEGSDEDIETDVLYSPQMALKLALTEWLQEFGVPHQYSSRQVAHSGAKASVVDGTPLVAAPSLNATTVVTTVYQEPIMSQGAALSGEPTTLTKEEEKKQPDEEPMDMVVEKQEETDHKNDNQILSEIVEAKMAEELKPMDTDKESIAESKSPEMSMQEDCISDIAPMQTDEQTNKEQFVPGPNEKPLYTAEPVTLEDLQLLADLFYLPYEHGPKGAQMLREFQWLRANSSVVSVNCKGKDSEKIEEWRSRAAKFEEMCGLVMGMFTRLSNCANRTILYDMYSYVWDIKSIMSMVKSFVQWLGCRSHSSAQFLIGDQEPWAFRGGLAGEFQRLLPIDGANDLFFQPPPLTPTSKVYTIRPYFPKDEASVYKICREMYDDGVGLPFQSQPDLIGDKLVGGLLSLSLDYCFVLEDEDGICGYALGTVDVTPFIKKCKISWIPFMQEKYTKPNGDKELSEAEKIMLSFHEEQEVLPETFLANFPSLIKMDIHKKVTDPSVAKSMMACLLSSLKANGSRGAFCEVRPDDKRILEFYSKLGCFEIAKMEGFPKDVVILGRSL
- Assay explanation: biochemical
pIC50: −log10 of the molar value.
Measured quantity: pIC50

Compound	Experimental system	pIC50
CCNC1=N[C@@H]2[C@@H](O)[C@H](O)[C@@H](Cn3cc(C(O)c4ccccc4)nn3)O[C@@H]2S1 (some centres unmarked)	His-Tagged hOGA (human O-GlcNAcase) (Homo sapiens, UniProt O60502)	> 7.00
CCNC1=N[C@@H]2[C@@H](O)[C@H](O)[C@@H](COC(c3ccccc3)(c3ccccc3)c3ccccc3)O[C@@H]2S1	His-Tagged hOGA (human O-GlcNAcase) (Homo sapiens, UniProt O60502)	6.00 to 6.30
CCN(C(=O)OC(C)(C)C)C1=N[C@@H]2[C@@H](O)[C@H](O)[C@@H](CO)O[C@@H]2S1	His-Tagged hOGA (human O-GlcNAcase) (Homo sapiens, UniProt O60502)	> 7.00
CCNC1=N[C@@H]2[C@@H](O)[C@H](O)[C@@H](Cn3cc(CN(C)c4ccccc4)nn3)O[C@@H]2S1	His-Tagged hOGA (human O-GlcNAcase) (Homo sapiens, UniProt O60502)	6.30 to 7.00
CCN(C(=O)OC)C1=N[C@@H]2[C@@H](O)[C@H](O)[C@@H](CO)O[C@@H]2S1	His-Tagged hOGA (human O-GlcNAcase) (Homo sapiens, UniProt O60502)	> 7.00
CCNC1=N[C@@H]2[C@@H](O)[C@H](O)[C@@H](Cn3cc(COc4cccc(S(C)(=O)=O)c4)nn3)O[C@@H]2S1	His-Tagged hOGA (human O-GlcNAcase) (Homo sapiens, UniProt O60502)	> 7.00
CCNC1=N[C@@H]2[C@@H](O)[C@H](O)[C@@H](Cn3cc(Cn4nc(C)nc4C)nn3)O[C@@H]2S1	His-Tagged hOGA (human O-GlcNAcase) (Homo sapiens, UniProt O60502)	> 7.00

// next item, pIC50 requested
The value of pIC50 measured for the compound CCNC1=N[C@@H]2[C@@H](O)[C@H](O)[C@@H](C(=O)Nc3ccccc3)O[C@@H]2S1 turned out to be < 6.00
